ASSAY OVERVIEW: qHTS assay to test for compound auto fluorescence at 590 nm (red) in HEK293 cell free culture (AID 720683)
RUN CONDITIONS: cell-free medium autofluorescence, Ex540/Em590 red; series mostly up to 46 µM
Active and inactive are the calls of the source. Calls come from the whole dose curve; as a rule, active = well fitted curve in the direction sought with a large enough effect in the repeat runs; inconclusive = weak or mixed curves; inactive = flat fitted curve, though single readings scatter.
QUANTITY KIND: outcome

Here's what some known entries look like.
Exercise: Find the recorded outcome belonging to Clc1nc(C(Cl)(Cl)Cl)c(Cl)c(Cl)c1Cl and report it.
Solution: inactive

Exercise: Moving on to C=C(Nc1ccc(OCC)cc1)Nc1ccc(OCC)cc1
Solution: inactive

Exercise: Further, for COc1c(Br)cc(Br)c(C)c1Br ?
Solution: inactive

Exercise: Would you mind doing CN[C@H]1CC[C@@H](c2ccc(Cl)c(Cl)c2)c2ccc(S(N)(=O)=O)cc21 as well?
Solution: inactive

Exercise: Note, next up: C=CC[N@@+]12CC[C@@]34c5ccccc5N5/C=C6/[C@H]7C[C@H]8[C@@]9(CC[N@@+]8(CC=C)C/C7=C/CO)c7ccccc7N(/C=C(/[C@@H](C[C@@H]31)/C(=C\CO)C2)[C@H]54)[C@@H]69
Solution: inactive

Exercise: What do we get for CCC(C)(C)c1ccc(CC(C)CN2C[C@@H](C)O[C@@H](C)C2)cc1 (stereo partly drawn) ?
Solution: inactive

---
Exercise: Query: outcome; subject: Nc1ccc(N)c([N+](=O)[O-])c1
Solution: inactive

Exercise: Field entry: NCCCC(=O)O
Solution: inactive

Exercise: What about CCCOC(=O)c1ccccc1O ?
Solution: inactive

Exercise: Okay, and NC(=O)CC[C@@H]1NC(=O)[C@H](Cc2ccccc2)NC(=O)[C@H](Cc2ccc(O)cc2)NC(=O)[C@@H](N)CSSC[C@@H](C(=O)N2CCC[C@H]2C(=O)N[C@@H](CCCN=C(N)N)C(=O)NCC(N)=O)NC(=O)[C@H](CC(N)=O)NC1=O ?
Solution: inactive

Exercise: Another compound to check: Nc1cc(Cl)c(NC2=NCCN2)c(Cl)c1
Solution: inactive

Exercise: One more compound: c1ccc(-n2cnnn2)cc1
Solution: inactive

Exercise: How about this compound: C=C1C(=C/C=C2\CCC[C@]3(C)[C@@H]([C@H](C)CCCC(C)C)CC[C@@H]23)C[C@@H](O)C[C@@H]1O
Solution: inactive

Exercise: What do you get for C[C@@H]1C(=O)NC2=Nc3cccc(Cl)c3CN21 ?
Solution: inactive

Exercise: Param item: CC(=O)O[C@H]1C[C@@H]2CC[C@@H]3[C@H](CC[C@@]4(C)[C@H]3C[C@H]([N+]3(C)CCCCC3)[C@@H]4OC(C)=O)[C@@]2(C)C[C@@H]1[N+]1(C)CCCCC1
Solution: inactive

Exercise: Same for CN(Cc1ccccc1)Cc1ccccc1
Solution: inactive

Exercise: And what about the compound COc1ccc([C@@H]2CC(=O)c3c(O)cc(O[C@@H]4O[C@H](CO[C@@H]5O[C@@H](C)[C@H](O)[C@@H](O)[C@H]5O)[C@@H](O)[C@H](O)[C@H]4O)cc3O2)cc1O ?
Solution: inactive

Exercise: Now the compound CN(C[C@@H](CC[N+]12CCC(C3CCCCC3)(CC1)CC2)c1ccc(Cl)c(Cl)c1)C(=O)c1cc(C(F)(F)F)cc(C(F)(F)F)c1
Solution: inactive

Measured values drawn from PubChem BioAssay (Tox21) for this set.
